Provenance of the data: ChEMBL document CHEMBL3399917

IC50 reference
- EXPERIMENT SUMMARY: Antiproliferative activity against human HCT116 cells after 72 hrs by MTT assay
- Type: functional, cell-based
- CONDITIONS USED: HCT-116, 72 h
Output spec: scalar in nM, unitless text.

Some solved cases for reference:
{"columns": ["MOLECULE", "IC50 [nM]"],
 "data": [
  ["NC(=O)c1cc(OC(F)(F)F)cc(-c2nc(N3CCOCC3)nc(N3CCOCC3)n2)c1", 900],
  ["NC(=O)c1cc(O)cc(-c2nc(N3CCOCC3)nc(N3CCOCC3)n2)c1", 1190]
]}

Consider the record given below.
Return IC50 (reported value) for this molecule: Nc1cc(C(F)(F)F)c(-c2cc(N3CCOCC3)nc(N3CCOCC3)n2)cn1 [BUPARLISIB] 480
